Target: FRPR-16 (Caenorhabditis elegans)
Sequence (Q21957 1-340): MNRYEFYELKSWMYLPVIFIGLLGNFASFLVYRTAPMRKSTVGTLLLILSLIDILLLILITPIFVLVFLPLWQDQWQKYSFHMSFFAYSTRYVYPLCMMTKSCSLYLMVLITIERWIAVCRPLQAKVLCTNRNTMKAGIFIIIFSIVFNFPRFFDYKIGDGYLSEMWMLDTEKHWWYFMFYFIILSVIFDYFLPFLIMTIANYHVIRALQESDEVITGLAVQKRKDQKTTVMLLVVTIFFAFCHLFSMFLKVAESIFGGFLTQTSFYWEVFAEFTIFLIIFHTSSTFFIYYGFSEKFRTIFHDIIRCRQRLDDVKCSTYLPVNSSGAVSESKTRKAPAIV
Experiment: In vitro GPCR activation assay (CHO-K1 cells, aequorin, human Gα16), FRPR-16
Format: cell-based, C. elegans
Details: calcium/aequorin luminescence in transfected CHO-K1 cells
Description: The GPCR activation assay was performed as previously described Van Sinay, E. et al. Proc. Natl Acad. Sci. USA 114, E4065-e4074 (2017) and Peymen, K. et al. PLoS Genet. 15, e1007945 (2019). […] The incubated cells were then added to synthetic peptides dissolved in DMEM/BSA, and luminescence was measured for 30 s at […] using a Mithras LB940 (Berthold Technologies) or MicroBeta LumiJet luminometer (PerkinElmer). […]
No end group written: not given here.
PROPERTY_LABEL: EC50 (nM)

Example entries begin here.
SPLGTMRF-NH2 [FLP-3-1, SPLGTMRFamide] :: 7.4
NPLGTMRF-NH2 [FLP-3-4, NPLGTMRFamide] :: 10.7
ASEDALFGTMRF-NH2 [FLP-3-5, ASEDALFGTMRFamide] :: 72.1
SADDSAPFGTMRF-NH2 [FLP-3-8, SADDSAPFGTMRFamide] :: 1600
NPENDTPFGTMRF-NH2 [FLP-3-9, NPENDTPFGTMRFamide] :: 88.3

a: SAEPFGTMRF-NH2 [FLP-3-7, SAEPFGTMRFamide]
b: EAEEPLGTMRF-NH2 [FLP-3-3, EAEEPLGTMRFamide]
Which of the two gives a bigger number for EC50: a or b ? API: response body contains the label of the selected item.
b
